# Target System: recombinant human VCP (Rattus norvegicus, UniProt P46462)
# Construct: His (N); host or cells: Escherichia coli BL21(DE3)
# Sequence (P46462 2-806 limits assumed): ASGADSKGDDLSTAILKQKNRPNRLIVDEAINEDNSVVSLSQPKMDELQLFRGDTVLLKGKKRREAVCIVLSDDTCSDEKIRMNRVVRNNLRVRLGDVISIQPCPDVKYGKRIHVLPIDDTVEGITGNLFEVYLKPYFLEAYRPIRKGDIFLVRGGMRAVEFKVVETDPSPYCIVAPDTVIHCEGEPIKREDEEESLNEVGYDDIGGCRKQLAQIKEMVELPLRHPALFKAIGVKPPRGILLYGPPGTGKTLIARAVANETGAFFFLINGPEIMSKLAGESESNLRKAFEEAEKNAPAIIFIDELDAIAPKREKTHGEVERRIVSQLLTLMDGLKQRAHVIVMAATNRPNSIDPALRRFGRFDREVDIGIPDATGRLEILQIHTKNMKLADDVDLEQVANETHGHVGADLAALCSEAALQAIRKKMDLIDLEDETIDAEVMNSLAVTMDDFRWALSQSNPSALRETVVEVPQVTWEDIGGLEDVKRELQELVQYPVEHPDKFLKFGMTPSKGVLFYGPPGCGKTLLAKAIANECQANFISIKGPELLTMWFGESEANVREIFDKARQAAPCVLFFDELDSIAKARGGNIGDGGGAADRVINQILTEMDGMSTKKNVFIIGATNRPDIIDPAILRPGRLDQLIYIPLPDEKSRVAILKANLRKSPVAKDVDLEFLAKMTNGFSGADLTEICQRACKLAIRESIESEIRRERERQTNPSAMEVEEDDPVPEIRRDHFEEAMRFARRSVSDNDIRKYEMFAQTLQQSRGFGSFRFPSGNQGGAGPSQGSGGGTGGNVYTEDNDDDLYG
# Measurement Notes: VCP ATPase activity, EnzChek Phosphate assay
# Format: biochemical
# Condition: screened at 5 µM; mean ± S.D., Supplemental Table 2
Assay Endpoint: VCP ATPase (% DMSO)
API: value field is a number in % DMSO; no unit string.

Some molecules with known VCP ATPase (% DMSO) results, for comparison:
Structure | Target System | Readout Value
COc1cccc2c(NCc3ccc(F)cc3)nc(NCc3ccc(F)cc3)nc12 | recombinant human VCP (Rattus norvegicus, UniProt P46462) | 99.33
COc1cccc2c(NCc3ccccc3)nc(NCc3ccc(C#N)cc3)nc12 | recombinant human VCP (Rattus norvegicus, UniProt P46462) | 95.43
COc1cccc2c(NCc3ccccc3)nc(NCc3ccc(C)cc3)nc12 | recombinant human VCP (Rattus norvegicus, UniProt P46462) | 83.40
COc1ccc2c(NCc3ccccc3)nc(NCc3ccccc3)nc2c1 | recombinant human VCP (Rattus norvegicus, UniProt P46462) | 86.15
Nc1cccc2c(NCc3ccccc3)nc(NCc3ccccc3)nc12 | recombinant human VCP (Rattus norvegicus, UniProt P46462) | 69.70

Quick one: VCP ATPase (% DMSO) of `COc1cccc2c(NCc3ccccc3)nc(NCc3ccccc3)nc12` ? 68.48

Could you do the same for `COc1cccc2c(NCc3ccccc3)nc(NCc3cccc(F)c3)nc12` , please? 80.50

Could you do the same for `COc1cccc2c(NCc3ccccc3)nc(NCc3cccc(C#N)c3)nc12` , please? 91.83

Could you do the same for `COc1ccc(CNc2nc(NCc3ccc(OC)cc3)c3cccc(OC)c3n2)cc1` , please? 100.96

Could you do the same for `c1ccc(CNc2nc(NCc3ccccc3)c3ccccc3n2)cc1` , please? 74.64
